Quick reference for koff among some binders
# MEASURED_ON: T1, cynomolgus monkey CD3 E&D complex protein (Sino Biological Inc., CT032-00323H) (cynomolgus monkey, UniProt Q95LI5 22-117; Q95LI8 22-105)
# T1 construct: bought heterodimer
# PROCEDURE_TEXT: BLI, antibody on sensor
All answers are understood in s⁻¹, so give the number only.

Use the examples below as a reference point.
- BINDER: "hzsp34.18 (antibody, human IgG1, lambda, L234A L235A, V domains shown, IgG1 L234A L235A, lambda) VH: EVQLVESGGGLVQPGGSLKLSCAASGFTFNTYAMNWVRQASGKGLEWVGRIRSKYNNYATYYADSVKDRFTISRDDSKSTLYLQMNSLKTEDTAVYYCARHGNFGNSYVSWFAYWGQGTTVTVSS VL: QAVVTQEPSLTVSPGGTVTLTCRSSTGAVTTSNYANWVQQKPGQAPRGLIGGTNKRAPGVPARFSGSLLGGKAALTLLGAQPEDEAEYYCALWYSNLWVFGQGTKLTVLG"
  koff [s⁻¹]: 0.00088
- BINDER: "hzsp34.38 (antibody, human IgG1, kappa, L234A L235A, V domains shown, IgG1 L234A L235A, kappa) VH: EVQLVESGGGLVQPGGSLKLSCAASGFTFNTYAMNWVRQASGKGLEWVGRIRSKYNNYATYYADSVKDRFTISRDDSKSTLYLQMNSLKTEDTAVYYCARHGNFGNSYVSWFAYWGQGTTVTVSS VL: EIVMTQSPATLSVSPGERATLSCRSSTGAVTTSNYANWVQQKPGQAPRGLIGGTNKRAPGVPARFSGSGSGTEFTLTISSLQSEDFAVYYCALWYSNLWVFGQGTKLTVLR"
  koff [s⁻¹]: 0.00183
- BINDER: "hzsp34.17 (antibody, human IgG1, lambda, L234A L235A, V domains shown, IgG1 L234A L235A, lambda) VH: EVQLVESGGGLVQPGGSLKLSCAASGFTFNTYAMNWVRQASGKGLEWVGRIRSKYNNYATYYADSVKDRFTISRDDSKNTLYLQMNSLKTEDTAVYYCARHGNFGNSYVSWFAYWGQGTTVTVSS VL: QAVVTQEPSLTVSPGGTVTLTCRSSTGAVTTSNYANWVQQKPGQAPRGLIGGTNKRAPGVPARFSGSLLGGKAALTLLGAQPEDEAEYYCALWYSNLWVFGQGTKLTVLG"
  koff [s⁻¹]: 0.000915

We next turn to a different binder, shown below.
Param item = hzsp34.15 (antibody, human IgG1, lambda, L234A L235A, V domains shown, IgG1 L234A L235A, lambda) VH: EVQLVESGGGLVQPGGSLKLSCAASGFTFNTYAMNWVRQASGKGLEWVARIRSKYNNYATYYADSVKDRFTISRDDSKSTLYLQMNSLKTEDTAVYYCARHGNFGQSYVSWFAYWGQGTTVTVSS VL: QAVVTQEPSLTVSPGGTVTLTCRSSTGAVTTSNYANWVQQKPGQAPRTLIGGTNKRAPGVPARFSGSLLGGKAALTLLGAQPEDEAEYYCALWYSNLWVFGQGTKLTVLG ; retrieve measured koff. 0.00115

Hello, the source for this data is patent US20230374132A1, in case you need it.
